System: Escherichia coli
Experiment: Antimicrobial activity against Escherichia coli ATCC 35218 assessed as diameter of inhibition zone at 20 uM after 24 hrs by Kirby -Baur disc diffusion method
Format: functional
Settings: ATCC 35218, 24 h, read-out: DIZ
Class yes: zone of inhibition at 20 µM at least 20 mm. Class no: zone of inhibition at 20 µM below 20 mm.

query: In plain terms: is recorded zone of inhibition at 20 µM at least 20 mm for COc1cc(/C=C/C(O)=C/C(/C=C/c2ccc(O)c(OC)c2)=N/c2ccc(S(=O)(=O)Nc3nc(C)cc(C)n3)cc2)ccc1O ?
result: yes

query: Textbook exercise: given the entry COc1cc(/C=C/C(O)=C/C(/C=C/c2ccc(O)c(OC)c2)=N/c2ccc(S(N)(=O)=O)cc2)ccc1O , state whether its zone of inhibition at 20 µM is greater than or equal to 20 mm.
result: no

query: Has COc1cc(/C=C/c2nn(-c3ccccc3)c(/C=C/c3ccc(O)c(OC)c3)c2/N=N/c2ccc(S(=O)(=O)Nc3cc(C)on3)cc2)ccc1O a recorded zone of inhibition at 20 µM greater than or equal to 20 mm?
result: no

query: # check: zone of inhibition at 20 µM of COc1cc(/C=C/C(CC(/C=C/c2ccc(O)c(OC)c2)=N/c2ccc(S(=O)(=O)Nc3nc(C)cc(C)n3)cc2)=N\c2ccc(S(=O)(=O)Nc3nc(C)cc(C)n3)cc2)ccc1O is greater than or equal to 20 mm
result: no

query: Determine whether this compound has zone of inhibition at 20 µM no lower than 20 mm: COc1ccc(NS(=O)(=O)c2ccc(/N=C(/C=C(O)/C=C/c3ccc(O)c(OC)c3)\C=C\c3ccc(O)c(OC)c3)cc2)nn1
result: no

query: Has COc1cc(/C=C/C(O)=C/C(/C=C/c2ccc(O)c(OC)c2)=N/c2ccc(S(=O)(=O)Nc3ccccn3)cc2)ccc1O a recorded zone of inhibition at 20 µM greater than or equal to 20 mm?
result: no

Values were extracted from ChEMBL document CHEMBL2384906.
